subject-of-test: T1, oligopeptide ATYPSGHLDM (SEQ ID NO: 1) (human and mouse)
T1 construct: Synthetic peptide; positions 148 to 157 of the human AQP3 polypeptide, identical in mouse; also called peptide used for immunization; oligopeptide 5
T1 peptide: ATYPSGHLDM
method-notes: ELISA on coated peptide
measurement-type: binding signal (plate reader)
Number, no unit, nothing else.

Worked cases, answers included:
| binder | readout-value |
| --- | --- |
| Antibody J (antibody, mouse IgG2a, kappa, V domains shown, also called anti AQP3 antibody J) VH: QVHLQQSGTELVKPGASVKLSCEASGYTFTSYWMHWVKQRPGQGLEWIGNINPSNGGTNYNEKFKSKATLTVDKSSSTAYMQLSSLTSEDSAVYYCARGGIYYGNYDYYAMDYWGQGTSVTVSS VL: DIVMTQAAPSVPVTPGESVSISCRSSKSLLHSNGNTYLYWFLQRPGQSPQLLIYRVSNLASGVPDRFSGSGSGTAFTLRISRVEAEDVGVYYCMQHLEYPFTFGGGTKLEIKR | 0.391 |
| Antibody C (antibody, mouse IgG2a, kappa, V domains shown, also called anti AQP3 antibody C) VH: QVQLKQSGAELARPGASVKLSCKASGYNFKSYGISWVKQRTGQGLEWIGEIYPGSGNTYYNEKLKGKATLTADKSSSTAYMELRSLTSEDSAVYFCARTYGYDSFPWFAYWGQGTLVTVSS VL: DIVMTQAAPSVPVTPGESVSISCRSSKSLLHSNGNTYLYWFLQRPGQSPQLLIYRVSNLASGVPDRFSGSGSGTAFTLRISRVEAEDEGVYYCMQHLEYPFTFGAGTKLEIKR | 2.21 |

Request: Sample SC-F8 (IgG) (antibody, V domains shown, also called anti AQP3 antibody SC-F8) VH: QTVKESGGRLVTPGGSLTLTCTVSRFSLSNYAMTWVRQAPGKGLEWIGIINNDGISSTWYASWVKGRFTISKTSTTMDLKMTSLTTEDTATYFCARGGTSGYDIWGPGTLVTVSL VL: AQVLTQTPSPVSAAVGGTVTINCQSSPSVYKNYLSWYQQKPGQPPKLLIYGASTLASGVPSRFKGSGSGTQFTLTISDVQCDDAATYYCAGGYRGSSDIFAFGGGTEVVVK — what was its binding signal (plate reader)?
Response: 3.97
